biological target: NDM-5 (Klebsiella pneumoniae, UniProt C7C422, M154L/V88L); test: Inhibitory activity on MBL, fluorescent substrate FC-5; format: biochemical; conditions: read-out: inhibitory activity at a nanomolar-level on NDM-5
Sequence (C7C422 29-270 V88L/M154L): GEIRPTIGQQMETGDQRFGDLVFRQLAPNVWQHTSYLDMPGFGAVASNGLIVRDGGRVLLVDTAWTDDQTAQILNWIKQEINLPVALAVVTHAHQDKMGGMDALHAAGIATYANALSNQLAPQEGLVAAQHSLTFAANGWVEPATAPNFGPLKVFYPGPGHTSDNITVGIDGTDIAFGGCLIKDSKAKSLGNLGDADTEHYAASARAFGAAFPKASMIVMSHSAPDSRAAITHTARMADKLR
pIC50: −log10 of the molar value.
Provide the reported pIC50 of each item.

QUERY: Complete the entry with pIC50 for O=C(O)c1c(Cn2cc(C(F)(F)F)cn2)ccc2c1OB(O)CC2 [Compound 16]
RESULT: > 6.00

QUERY: Quickly give me recorded pIC50 for Nc1ccc(-c2cn(Cc3ccc4c(c3C(=O)O)OB(O)CC4)nn2)cn1 [Compound 60]
RESULT: > 6.00

QUERY: Answer with reported pIC50 of O=C(O)c1c(Cn2cc(C3CNC3)nn2)ccc2c1OB(O)CC2 [Compound 47]
RESULT: > 6.00

QUERY: Look up pIC50 of NCc1ccn(Cc2ccc3c(c2C(=O)O)OB(O)CC3)n1 [Compound 42] and report it.
RESULT: > 6.00

QUERY: Return the recorded pIC50 value; entry: O=C(O)c1c(Cn2ccnn2)ccc2c1OB(O)CC2 [Compound 2]
RESULT: > 6.00

QUERY: Item O=C(O)c1c(Cn2ccnc2)ccc2c1OB(O)CC2 [Compound 23] : provide pIC50
RESULT: > 6.00

QUERY: Report measured pIC50; entry is O=C(O)c1c(Cn2cc(F)cn2)ccc2c1OB(O)CC2 [Compound 15]
RESULT: > 6.00

QUERY: Answer with the recorded pIC50 of NC1CN(C(=O)c2cnn(Cc3ccc4c(c3C(=O)O)OB(O)CC4)c2)C1 [Compound 72] only.
RESULT: > 6.00

QUERY: Identify the reported pIC50 for the following entry. N=C(N)NCCc1cn(Cc2ccc3c(c2C(=O)O)OB(O)CC3)nn1 [Compound 10]
RESULT: > 6.00

QUERY: Provide one value: measured pIC50 of N#Cc1cnn(Cc2ccc3c(c2C(=O)O)OB(O)CC3)c1 [Compound 17]
RESULT: > 6.00

QUERY: Check the records and state pIC50 for NS(=O)(=O)NCc1cnn(Cc2ccc3c(c2C(=O)O)OB(O)CC3)c1 [Compound 36]
RESULT: > 6.00

QUERY: Give the measured pIC50 for Nc1ccc(-c2cn(Cc3ccc4c(c3C(=O)O)OB(O)CC4)nn2)cc1 [Compound 59]
RESULT: > 6.00

QUERY: Give reported pIC50 value for NS(=O)(=O)c1ccc(-c2cn(Cc3ccc4c(c3C(=O)O)OB(O)CC4)nn2)cc1 [Compound 62]
RESULT: > 6.00

QUERY: Return the recorded pIC50 value; entry: O=C(O)c1c(Cn2cccn2)ccc2c1OB(O)CC2 [Compound 14]
RESULT: > 6.00

QUERY: // Input: O=C(O)c1c(Cn2cc3c(n2)CNC3)ccc2c1OB(O)[C@H]1C[C@@H]21 [Compound 54] . Output its pIC50 only.
RESULT: > 6.00

QUERY: Return pIC50 (reported value) for this molecule: NCCN1Cc2cn(Cc3ccc4c(c3C(=O)O)OB(O)CC4)nc2C1 [Compound 70]
RESULT: > 6.00

QUERY: Supply recorded pIC50 for O=C(O)c1c(Cn2ccc3cncnc32)ccc2c1OB(O)CC2 [Compound 55] here.
RESULT: > 6.00

QUERY: Hello, please tell me recorded pIC50 for this one: O=C(O)c1c(Cn2ncc3ccccc32)ccc2c1OB(O)CC2 [Compound 22]
RESULT: > 6.00

QUERY: Write down pIC50 measured for item N=C(N)NCc1cnn(Cc2ccc3c(c2C(=O)O)OB(O)CC3)c1 [Compound 37]
RESULT: > 6.00

The reported measurements were obtained from patent US20250205259A1.
